biological target: T1, human activated protein C (human, UniProt P04070 43-197; P04070 212-461); assay: Octet BLI, antibody on Protein A sensor, huAPC 3.13-50 nM, 1:1 model, 25 C, pH 7.4
T1 construct: In the plasma assays aPC is generated in human plasma with Protac; also called aPC; haPC
Each entry below carries its recorded kon.
Hi! Could you send only the number? It should be in M⁻¹ s⁻¹, unit omitted.

As a guide, the following entries are already answered.
HAPC-14-10 (antibody, V domains shown, Whole IgG, backbone hIgG1; also called HPAC 14-10) VH: EVQLVESGGGLVQPGGSLRLSCAASGFTFSNYYLNWVRQAPGKGLEWVGDIRLKKNNYEKHYAESVKGRFTISRDDSKSITYLQMNSLRAEDTAVYYCAREGDTFDYWGQGTTVTVSS VL: DIQLTQSPSSLSASVGDRVTITCRASESVDSFGATFMHWYQQKPGKAPKLLIYLASRLGSGVPSRFSGSGSGTDFTLTISSLQPEDFATYYCVQNNEDPYTFGQGTKLEIK = 225000
HAPC-14-9 (antibody, V domains shown, Whole IgG, backbone hIgG1; also called HPAC 14-9) VH: EVQLVESGGGLVQPGGSLRLSCAASGFTFSFYYLNWVRQAPGKGLEWVGDIRLKKNNYEKHYAESVKGRFTISRDDSKSITYLQMNSLRAEDTAVYYCAREGDTFDYWGQGTTVTVSS VL: DIQLTQSPSSLSASVGDRVTITCRASESVDSFGATFMHWYQQKPGKAPKLLIYLASRLGSGVPSRFSGSGSGTDFTLTISSLQPEDFATYYCQQNNEDPYTFGQGTKLEIK = 245000
HAPC-14-1 (antibody, V domains shown, Whole IgG, backbone hIgG1; also called HPAC14-1) VH: EVQLVESGGGLVQPGGSLRLSCAASGFTFSFYYLNWVRQAPGKGLEWVGDIRLKSNNYEKHYAESVKGRFTISRDDSKSITYLQMNSLRAEDTAVYYCAREGDYFDYWGQGTTVTVSS VL: DIQLTQSPSSLSASVGDRVTITCRASESVDSFGATFMHWYQQKPGKAPKLLIYLASWLGSGVPSRFSGSGSGTDFTLTISSLQPEDFATYYCQQNNEDPYTFGQGTKLEIK = 306000
HAPC-14-4 (antibody, V domains shown, Whole IgG, backbone hIgG1; also called HPAC 14-4) VH: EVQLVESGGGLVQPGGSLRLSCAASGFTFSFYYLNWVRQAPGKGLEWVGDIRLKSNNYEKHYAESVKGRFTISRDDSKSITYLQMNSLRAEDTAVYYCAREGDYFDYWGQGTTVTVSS VL: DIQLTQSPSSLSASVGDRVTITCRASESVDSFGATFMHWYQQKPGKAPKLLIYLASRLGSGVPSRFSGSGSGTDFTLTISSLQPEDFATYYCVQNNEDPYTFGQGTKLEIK = 310000
HAPC-14-7 (antibody, V domains shown, Whole IgG, backbone hIgG1; also called HPAC 14-7) VH: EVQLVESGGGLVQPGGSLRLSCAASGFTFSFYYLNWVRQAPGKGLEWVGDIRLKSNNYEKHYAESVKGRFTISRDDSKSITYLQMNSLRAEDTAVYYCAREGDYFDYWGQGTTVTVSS VL: DIQLTQSPSSLSASVGDRVTITCRASESVDSFGATFMHWYQQKPGKAPKLLIYLASRLESGVPSRFSGSGSGTDFTLTISSLQPEDFATYYCQQNNEDPYTFGQGTKLEIK = 256000

We now examine a further binder.
Req: For the binder HAPC-14-5 (antibody, V domains shown, Whole IgG, backbone hIgG1; also called HPAC 14-5) VH: EVQLVESGGGLVQPGGSLRLSCAASGFTFSFYYLNWVRQAPGKGLEWVGDIRLKKNNYEKHYAESVKGRFTISRDDSKSITYLQMNSLRAEDTAVYYCAREGDYFDYWGQGTTVTVSS VL: DIQLTQSPSSLSASVGDRVTITCRASESVDSFGATFMHWYQQKPGKAPKLLIYLASWLGSGVPSRFSGSGSGTDFTLTISSLQPEDFATYYCVQNNEDPYTFGQGTKLEIK , what kon is on record?
Resp: 322000
